- TEST_SUMMARY: Pharmacokinetics of acetate of Compound 22 in SD rats with single and repeated administration
- Assay type: in vivo
- REPORTED_CONDITIONS: Sprague-Dawley, rat, plasma, Group 1 IV 2.0 mg/kg single, Female, read-out: Vss

| COMPOUND | Vd [L/kg] |
| --- | --- |
| CC(=O)O.Nc1nc(NCCc2ccc(NC3COC3)cc2)nc2nc(-c3ccco3)nn12 [Acetate of Compound 22] | 0.465 |

###

- TEST_SUMMARY: Pharmacokinetics of acetate of Compound 22 in SD rats with single and repeated administration
- Type: in vivo
- REPORTED_CONDITIONS: female, Sprague-Dawley, rat, plasma, po, 63 mg/kg, Group 3 PO 63 mg/kg single, Female, read-out: Cmax

| COMPOUND | Cmax / µg/mL |
| --- | --- |
| CC(=O)O.Nc1nc(NCCc2ccc(NC3COC3)cc2)nc2nc(-c3ccco3)nn12 [Acetate of Compound 22] | 30.5 |

###

- TEST_SUMMARY: Pharmacokinetics of acetate of Compound 22 in SD rats with single and repeated administration
- Format: in vivo
- REPORTED_CONDITIONS: both sexes, Sprague-Dawley, rat, plasma, Group 1 IV 2.0 mg/kg single, Overall, read-out: CL
OBSERVED_PROPERTY: clearance (L/h/kg)

| MOLECULE | EXPERIMENTAL_VALUE |
| --- | --- |
| CC(=O)O.Nc1nc(NCCc2ccc(NC3COC3)cc2)nc2nc(-c3ccco3)nn12 [Acetate of Compound 22] | 0.361 |

###

- TEST_SUMMARY: Pharmacokinetics of test compounds in SD rats (15.2; IV and PO, mixed administration)
- Assay type: in vivo
- REPORTED_CONDITIONS: male, Sprague-Dawley, rat, plasma; SD rats, PO, 3 mg/kg; read-out: T½ (converted)

| MOLECULE | OUTPUT_UNIT | half-life |
| --- | --- | --- |
| COCCn1nnc(-c2ccc(CCNc3nc(N)n4nc(-c5ccco5)nc4n3)cc2)n1 [Compound 47] | h | 2.25 |

###

- TEST_SUMMARY: Pharmacokinetics of acetate of Compound 22 in SD rats with single and repeated administration
- Assay type: in vivo
- REPORTED_CONDITIONS: male, Sprague-Dawley, rat, plasma, po, 63 mg/kg, Group 3 PO 63 mg/kg single, Male, read-out: Cmax
OBSERVED_PROPERTY: Cmax (µg/mL)

| COMPOUND | OBSERVED_PROPERTY | EXPERIMENTAL_VALUE |
| --- | --- | --- |
| CC(=O)O.Nc1nc(NCCc2ccc(NC3COC3)cc2)nc2nc(-c3ccco3)nn12 [Acetate of Compound 22] | Cmax | 24.2 |

###

- TEST_SUMMARY: Pharmacokinetics of Compounds 22, 27 and 40 in SD rats after oral administration for 7 consecutive days
- Format: in vivo
- REPORTED_CONDITIONS: male, Sprague-Dawley (SD), rat, plasma, po, 30 mg/kg, male SD rats, oral 30 mg/kg once a day; seventh day; read-out: drug exposure AUC0-t

| ITEM_SMILES | AUC(0-t), ng·h/mL |
| --- | --- |
| Nc1nc(NCCc2ccc(NC3COC3)cc2)nc2nc(-c3ccco3)nn12 | 6950 |
| Cn1nnc(-c2ccc(CCNc3nc(N)n4nc(-c5ccco5)nc4n3)cc2)n1 | 6580 |
| COCCNc1ccc(CCNc2nc(N)n3nc(-c4ccco4)nc3n2)cc1 | 22200 |

###

- TEST_SUMMARY: Pharmacokinetics of acetate of Compound 22 in SD rats with single and repeated administration
- Format: in vivo
- REPORTED_CONDITIONS: both sexes, Sprague-Dawley, rat, plasma, iv, 2 mg/kg, Group 1 IV 2.0 mg/kg single, Overall, read-out: AUC0-t

| COMPOUND | AUC(0-t) [ng·h/mL] |
| --- | --- |
| CC(=O)O.Nc1nc(NCCc2ccc(NC3COC3)cc2)nc2nc(-c3ccco3)nn12 [Acetate of Compound 22] | 5360 |

###

- TEST_SUMMARY: Pharmacokinetics of Compound 40 and benzene sulfonate thereof in ICR mice, PO
- REPORTED_CONDITIONS: mouse, in vivo, PO 100 mg/kg (based on free base), 40% Hp-β-CD, read-out: AUCINF—pred

| COMPOUND | AUC(0-inf) |
| --- | --- |
| Cn1nnc(-c2ccc(CCNc3nc(N)n4nc(-c5ccco5)nc4n3)cc2)n1.O=S(=O)(O)c1ccccc1 [Benzene sulfonate of Compound 40] | 138000 ng·h/mL |
| Cn1nnc(-c2ccc(CCNc3nc(N)n4nc(-c5ccco5)nc4n3)cc2)n1 | 12100 ng·h/mL |

###

- TEST_SUMMARY: Pharmacokinetics of acetate of Compound 22 in SD rats with single and repeated administration
- Format: in vivo
- REPORTED_CONDITIONS: male, Sprague-Dawley, rat, plasma, po, 189 mg/kg, Group 4 PO 189 mg/kg single, Male, read-out: T1/2 (converted)

| COMPOUND | half-life (h) |
| --- | --- |
| CC(=O)O.Nc1nc(NCCc2ccc(NC3COC3)cc2)nc2nc(-c3ccco3)nn12 [Acetate of Compound 22] | 3.68 |

###

- TEST_SUMMARY: Solubility in biological vehicles (SGF, FaSSIF, FeSSIF) at 37° C., HPLC
- Type: physicochemical
- REPORTED_CONDITIONS: fasted state simulated intestinal fluid (FaSSIF), 37 °C, fassif, thermodynamic from solid, 0.5 h
Each record here notes measured solubility at 0.5 h.

| COMPOUND | solubility at 0.5 h [µg/mL] |
| --- | --- |
| CC(=O)O.Nc1nc(NCCc2ccc(NC3COC3)cc2)nc2nc(-c3ccco3)nn12 [Acetate of Compound 22] | 9.3 |
| Nc1nc(NCCc2ccc(NC3COC3)cc2)nc2nc(-c3ccco3)nn12 | 3.7 |

###

- TEST_SUMMARY: Pharmacokinetics of acetate of Compound 22 in SD rats with single and repeated administration
- Type: in vivo
- REPORTED_CONDITIONS: both sexes, Sprague-Dawley, rat, plasma, po, 21 mg/kg, Group 2 PO 21 mg/kg single, Overall, read-out: T1/2 (converted)

| MOLECULE | OUTPUT_UNIT | half-life |
| --- | --- | --- |
| CC(=O)O.Nc1nc(NCCc2ccc(NC3COC3)cc2)nc2nc(-c3ccco3)nn12 [Acetate of Compound 22] | h | 3.47 |

###

- TEST_SUMMARY: Pharmacokinetics of acetate of Compound 22 in SD rats with single and repeated administration
- Type: in vivo
- REPORTED_CONDITIONS: Sprague-Dawley, rat, plasma, Group 1 IV 2.0 mg/kg single, Male
OBSERVED_PROPERTY: C0 (ng/mL)

| MOLECULE | OUTPUT_UNIT | EXPERIMENTAL_VALUE |
| --- | --- | --- |
| CC(=O)O.Nc1nc(NCCc2ccc(NC3COC3)cc2)nc2nc(-c3ccco3)nn12 [Acetate of Compound 22] | ng/mL | 7060 |

###

- TEST_SUMMARY: Pharmacokinetic evaluation of Compound 22 in female BALB/c mice in different vehicles
- Type: in vivo
- REPORTED_CONDITIONS: mouse, plasma, po, 100 mg/kg, 100 mg/kg p.o. single, Group 2, vehicle 40% (2-hydroxypropyl)-β-cyclodextrin
OBSERVED_PROPERTY: Tmax

| ITEM_SMILES | EXPERIMENTAL_VALUE |
| --- | --- |
| Nc1nc(NCCc2ccc(NC3COC3)cc2)nc2nc(-c3ccco3)nn12 | 30 min |

###

Each record here notes measured half-life.
- TEST_SUMMARY: Pharmacokinetics of test compounds in SD rats (15.2; IV and PO, mixed administration)
- Format: in vivo
- REPORTED_CONDITIONS: male, Sprague-Dawley, rat, plasma, IV, 1 mg/kg, read-out: T½ (converted)
OBSERVED_PROPERTY: half-life (min)

| ITEM_SMILES | EXPERIMENTAL_VALUE |
| --- | --- |
| Cn1nnc(-c2ccc(CCNc3nc(N)n4nc(-c5ccco5)nc4n3)cc2)n1 | 46.8 |
| COCCNc1ccc(CCNc2nc(N)n3nc(-c4ccco4)nc3n2)cc1 | 28.2 |

###

- TEST_SUMMARY: Pharmacokinetics of acetate of Compound 22 in SD rats with single and repeated administration
- Format: in vivo
- REPORTED_CONDITIONS: Sprague-Dawley (SD), rat, plasma, oral 189 mg/kg

| MOLECULE | OUTPUT_UNIT | bioavailability |
| --- | --- | --- |
| CC(=O)O.Nc1nc(NCCc2ccc(NC3COC3)cc2)nc2nc(-c3ccco3)nn12 [Acetate of Compound 22] | % | 47.9 |
